meta.source: a melting point compilation (Tetko et al.; mined from patent text by program, amines drawn as free bases though some values may be those of a salt)

ENDPOINT: melting point

COMPOUND	melting point
O=C(O)c1ccc(C(c2ccc(C(=O)O)cc2)(c2ccc(C(=O)O)cc2)C(F)(F)F)cc1	366 to 367 °C

What value of melting point has been recorded for this entry: `CSCC(C)(C)NC(=O)c1c(I)cccc1Oc1ccc(Cl)cc1C`
128 to 130 °C

What value of melting point has been recorded for this entry: `C=CCOC(=O)c1cnc2c(cnn2CCC(C)C)c1N`
124 to 126 °C

What value of melting point has been recorded for this entry: `Fc1cccc(C(c2ccccc2)(c2cccc(F)c2)n2ccnc2)c1`
165 to 167 °C

What value of melting point has been recorded for this entry: `CCOC(=O)CNc1c(C#N)cnn1-c1ccc(C(F)(F)F)cc1Cl`
100 to 102 °C

What value of melting point has been recorded for this entry: `O=C(c1cccnc1)c1cnc2c(cnn2Cc2ccco2)c1O`
152 to 153 °C

What value of melting point has been recorded for this entry: N#Cc1ncc(Cl)cc1OC1SCC(O)C(O)C1O (stereo not given)
122 °C

What value of melting point has been recorded for this entry: `O=C(NCCCc1ccc(CCl)cc1)c1ccc(-c2ccccn2)cc1`
115 to 117 °C

What value of melting point has been recorded for this entry: `CCCSc1ncc(C(=O)N[C@H](Cc2ccccc2)C(=O)O)n1Cc1ccccc1Cl`
176 to 177 °C

What value of melting point has been recorded for this entry: O=C(NCC(=O)N1c2ccccc2N(Cc2ccccc2)C(=O)[C@H]2CCC[C@H]21)c1ccc2c(c1)OCO2 (relative stereo)
174 to 176 °C

----------
Catalogue of melting point readings, one per entry.

COMPOUND	melting point
Oc1ccc(CCCn2ccnc2)cc1	158 to 160 °C
CCCCCCCCCCCCCCCC[C@]1(CO)CC(=O)N1	82 °C

What value of melting point has been recorded for this entry: `O=c1c2ccc(Cl)cc2cc2n1CCCS2`
109 to 110 °C

----------
Catalogue of melting point readings, one per entry.

MOLECULE	melting point
Cc1cc2c(cc1N(Cc1ccccc1)Cc1ccccc1)OC(=O)C2C (centres undefined)	122 to 123 °C
Cc1c(C)c2c(c(C)c1NC(=O)CC(C)(C)C)C(c1ccc(C(C)C)cc1)C1(CCCC1)O2 (centres undefined)	209 to 210 °C
Cc1ccc(S(=O)(=O)Nc2nc(-c3ccc(OCc4ccccc4)c(OCc4ccccc4)c3)cs2)cc1	158 to 161 °C
CC(=NNc1ccc(Cl)c2c1CC(C)O2)C(=O)O (centres undefined)	155 to 157 °C

What value of melting point has been recorded for this entry: `COc1ccc(C2(Oc3c(F)c(F)c(F)c(F)c3F)CCN(C)CC2)cc1`
70 to 80 °C

What value of melting point has been recorded for this entry: `Cc1c(C(=O)O)cnn1-c1cccc(Cl)c1`
145 °C

What value of melting point has been recorded for this entry: Cc1cc(Cl)ccc1OC(Cn1cncn1)C(O)C(C)(C)C (centres undefined)
124 to 126 °C

What value of melting point has been recorded for this entry: `CCCCCCCCCC[C@@H]1C(=O)OC(c2ccccc2)=C[C@@H]1C(=O)OC`
108 to 111 °C

What value of melting point has been recorded for this entry: `C=CCN(C(=O)OC(C)(C)C)c1cc(OC)c(-c2ccc(C[C@H](NC(=O)c3c(Cl)cccc3Cl)C(=O)O)cc2)c(OC)c1`
138 to 139 °C

What value of melting point has been recorded for this entry: `Cn1cc(C(=O)Nc2ccccc2-c2ccc(F)c(Cl)c2)c(CF)n1`
133 to 134 °C

What value of melting point has been recorded for this entry: `O=C(O)CCCC[C@@H]1SC[C@H]2[C@@H]1N(Cc1ccccc1)C(=O)N2Cc1ccccc1`
88 to 89 °C

What value of melting point has been recorded for this entry: OC1(Cn2cncn2)C(=Cc2ccc(Cl)cc2)CCCC1C1CCCCC1 (centres undefined)
144 °C

What value of melting point has been recorded for this entry: `CCc1nc2cnc3cc(Br)cnc3c2n1CC(C)(C)O`
207 to 208 °C

What value of melting point has been recorded for this entry: `CC1(C)C(=O)N(C(=O)NCC2(O)CCN(CC3(C(=O)O)CCC3)CC2)c2cc(F)ccc21`
159 °C

What value of melting point has been recorded for this entry: COC1=CCCSC1c1cc(N2C(=O)C3=C(CCCC3)C2=O)ccc1Cl (centres undefined)
116 to 119 °C

What value of melting point has been recorded for this entry: `CCc1nnc(-c2ncc3[nH]c4cccc(OCc5ccccc5)c4c3c2COC)o1`
230 °C

What value of melting point has been recorded for this entry: `COC(=O)[C@@H](Cc1ccccc1)NC(=O)OCc1cc2cc(-c3ccsc3)ccc2o1`
105 to 106 °C

What value of melting point has been recorded for this entry: `CC(C)(C)c1cc(Cl)c2c(c1)-c1ccccc1P(=O)(O)O2`
240 °C

What value of melting point has been recorded for this entry: COCCOCc1c(CN(C)CC(O)c2c[nH]c3ccccc23)sc2c(=O)c(C(=O)NCc3ccc(Cl)cc3)cn(C)c12 (centres undefined)
167 to 169 °C

----------
Catalogue of melting point readings, one per entry.

Recorded melting point, per entry:
COMPOUND	melting point
O=c1c2cnn(CC3CO3)c2ncn1CC1CO1 (configuration not stated)	90 to 95 °C
O=C1CC(c2ccccc2O)=Nc2ccc(N3CCCC3)cc21	304 to 306 °C

What value of melting point has been recorded for this entry: `COc1ccc(C(=O)c2cccc(Br)c2F)cc1`
88 to 90 °C

What value of melting point has been recorded for this entry: CN1C(=O)C(c2ccc(OC(F)F)cc2)(C2CCCCC2)N=C1N (configuration not stated)
178 to 180 °C

What value of melting point has been recorded for this entry: CC(C)=CCOC1(C(F)(F)F)CN(C2CC2)C(=O)Nc2ccc(Cl)cc21 (configuration not stated)
130 to 131 °C

What value of melting point has been recorded for this entry: Cc1cc(C)c(C2C(=O)CC(CC3CCOC3)CC2=O)c(C)c1 (configuration not stated)
62 to 64 °C

What value of melting point has been recorded for this entry: `COC(=O)c1cccc(NC(=O)c2ccc(OC)c(N)c2)c1`
160 to 162 °C

What value of melting point has been recorded for this entry: `COC(=O)[C@H](CC(C)C)NC(=O)[C@H](NC(=O)OCc1ccccc1)C(C)C`
112 to 114 °C

----------
Catalogue of melting point readings, one per entry.

What value of melting point has been recorded for this entry: `CC(=O)NC[C@H]1CN(c2ccc(N3C[C@H]4CN(C(=O)CO)C[C@H]4C3)c(F)c2)C(=O)O1`
167 to 168 °C

What value of melting point has been recorded for this entry: `Cc1nc(=O)n(COc2ccccc2)c(C)c1Br`
120 °C

What value of melting point has been recorded for this entry: `CCOC(=O)c1ccc(-c2cccc(OCc3ccc(COC(=O)c4ccccc4)c(COC(=O)c4ccccc4)c3)c2)nc1`
118 to 120 °C

What value of melting point has been recorded for this entry: `O=c1oc2c(c(O)c1-c1ccccc1)CCCC2`
168 °C

What value of melting point has been recorded for this entry: `O=[N+]([O-])c1cn2c(n1)OC[C@@H](OCc1ccc(Cl)nc1)C2`
191 to 193 °C

----------
Catalogue of melting point readings, one per entry.

Recorded melting point, per entry:
COMPOUND	melting point
Cc1nc(N2CCc3ccccc3CC2)c(C#N)c(=O)n1CC=C(F)F	158 to 159 °C
OCc1nccc(N2CCCC2)c1Cl	85 to 86 °C

What value of melting point has been recorded for this entry: CC1Oc2ccc(C(=O)CCC(=O)O)cc2NC1=O (stereo unspecified)
198 to 200 °C

What value of melting point has been recorded for this entry: `CC1(C)CCC(C)(C)c2cc(OCc3ccc(CN)cc3)ccc21`
77 to 79 °C

What value of melting point has been recorded for this entry: `O=C(C1=NCCCCCN1)c1ccccc1`
70 to 71 °C

What value of melting point has been recorded for this entry: `O=C(O)CCOc1cccc(/C=C/c2nc3ccccc3s2)c1`
177 to 178 °C

What value of melting point has been recorded for this entry: `CC(C)N(C(=S)ON1C(=O)c2ccccc2C1=O)C(C)C`
73 to 75 °C

----------
ENDPOINT: melting point

COMPOUND	ENDPOINT	RESULT
Clc1ccc(COc2ccc(Cl)cc2C(c2ccccc2)n2ccnc2)c(Cl)c1 (stereo not given)	melting point	132 to 134 °C
CSCC(C)(C)N(C(=O)c1c(I)cccc1C(N)=O)c1ccc(Cn2nnn(-c3ccc(C(F)(F)F)cc3)c2=O)cc1C	melting point	83 to 87 °C
CC(=O)NNc1ccnc2c(NC(=O)c3c(Cl)cccc3Cl)cccc12	melting point	252 °C
O=C1N(c2c(Cl)cccc2Cl)Cc2cnc(NCC3CCCCC3)nc2N1c1ccccc1	melting point	229 to 233 °C

We now examine a further compound.
What value of melting point has been recorded for this entry: `N=C(Nc1ccc([N+](=O)[O-])cc1)c1ccccc1`
240 to 241 °C
